Tested on: calf-thymus DNA
measurement_notes: Equilibrium binding to calf-thymus DNA, Scatchard plots of binding isotherms (spectrophotometric)
test_parameters: Scatchard plot
*1 amine or outer side, *2 acyl side, *3 side chain or, on linkers, in order; H or OH if unused. Where a SMILES comes first, the peptide text is derived from it. Bridges are numbered along the chain shown (N, C = ends). Roman numbers before positions name the chains, in order. [ ]: non-standard residue; d: D form. Actinocin(9to1) = Cc1c2oc3c(C)ccc(C(=O)[*:1])c3nc-2c(C(=O)[*:2])c(N)c1=O; NMeV = CN[C@H](C(=O)O)C(C)C; Sar = CNCC(=O)O
measure_name: Bapp (equilibrium binding value)
Please give the numeric answer without any surrounding text.

## Input Give recorded Bapp (equilibrium binding value) with calf-thymus DNA for the following molecule: Cc1c2oc3c(C)c(O)c(N)c(C(=O)NC4C(=O)NC(C(C)C)C(=O)N5CCCC5C(=O)N(C)CC(=O)N(C)C(C(C)C)C(=O)OC4C)c3nc-2c(C(=O)NC2C(=O)NC(C(C)C)C(=O)N3CCCC3C(=O)N(C)CC(=O)N(C)C(C(C)C)C(=O)OC2C)c(N)c1=O (stereo not shown) [4a, 7-Hydroxy-8-amino-actinomycin D]
## Output 1.3

## Input // fetch calf-thymus DNA Bapp (equilibrium binding value) for Cc1nc2c(C(=O)NC3C(=O)NC(C(C)C)C(=O)N4CCCC4C(=O)N(C)CC(=O)N(C)C(C(C)C)C(=O)OC3C)c3nc4c(C(=O)NC5C(=O)NC(C(C)C)C(=O)N6CCCC6C(=O)N(C)CC(=O)N(C)C(C(C)C)C(=O)OC5C)c(N)c(=O)c(C)c-4oc3c(C)c2o1 (stereo not shown)
## Output 0.038

## Input I'm curious: which Bapp (equilibrium binding value) was measured for Cc1c2oc3c(C)ccc(C(=O)N[C@@H]4C(=O)N[C@H](C(C)C)C(=O)N5CCC[C@H]5C(=O)N(C)CC(=O)N(C)[C@@H](C(C)C)C(=O)O[C@@H]4C)c3nc-2c(C(=O)N[C@@H]2C(=O)N[C@H](C(C)C)C(=O)N3CCC[C@H]3C(=O)N(C)CC(=O)N(C)[C@@H](C(C)C)C(=O)O[C@@H]2C)c(N)c1=O [AMD, Actinomycin D] (I: T[dV]P[Sar][NMeV] / II: T[dV]P[Sar][NMeV]; ester I:1-I:C, II:1-II:C; linker I:N-II:N via Actinocin(9to1)) tested on calf-thymus DNA?
## Output 0.108

## Input Request: Bapp (equilibrium binding value), test system calf-thymus DNA, entry Cc1c2oc3c(C)c4oc(-c5ccccc5)nc4c(C(=O)NC4C(=O)NC(C(C)C)C(=O)N5CCCC5C(=O)N(C)CC(=O)N(C)C(C(C)C)C(=O)OC4C)c3nc-2c(C(=O)NC2C(=O)NC(C(C)C)C(=O)N3CCCC3C(=O)N(C)CC(=O)N(C)C(C(C)C)C(=O)OC2C)c(N)c1=O (stereo not shown)
## Output 0.036

----------
System: B16 melanoma
measurement_notes: In vivo antitumor activity against B16 melanoma
Set-up: species or system BDF1 mice
test_parameters: at optimal dose, control 29 (20-48)
*1 amine or outer side, *2 acyl side, *3 side chain or, on linkers, in order; H or OH if unused. Where a SMILES comes first, the peptide text is derived from it. Bridges are numbered along the chain shown (N, C = ends). Roman numbers before positions name the chains, in order. [ ]: non-standard residue; d: D form. Actinocin(9to1) = Cc1c2oc3c(C)ccc(C(=O)[*:1])c3nc-2c(C(=O)[*:2])c(N)c1=O; NMeV = CN[C@H](C(=O)O)C(C)C; Sar = CNCC(=O)O
Recorded MST (range), one value per entry.

Cc1c2oc3c(C)c(O)c(N)c(C(=O)NC4C(=O)NC(C(C)C)C(=O)N5CCCC5C(=O)N(C)CC(=O)N(C)C(C(C)C)C(=O)OC4C)c3nc-2c(C(=O)NC2C(=O)NC(C(C)C)C(=O)N3CCCC3C(=O)N(C)CC(=O)N(C)C(C(C)C)C(=O)OC2C)c(N)c1=O (stereo not shown) [4a, 7-Hydroxy-8-amino-actinomycin D]; 57 (33-61) days

## Input Lab note: need MST (range) for Cc1c2oc3c(C)c4oc(-c5ccccc5)nc4c(C(=O)NC4C(=O)NC(C(C)C)C(=O)N5CCCC5C(=O)N(C)CC(=O)N(C)C(C(C)C)C(=O)OC4C)c3nc-2c(C(=O)NC2C(=O)NC(C(C)C)C(=O)N3CCCC3C(=O)N(C)CC(=O)N(C)C(C(C)C)C(=O)OC2C)cc1=O (stereo not shown) [10a, 2-Phenyl-AMD--OZL] on B16 melanoma, anyone have it?
## Output 45 (33-56) days

## Input Provide the documented MST (range) with B16 melanoma as the system for Cc1c2oc3c(C)c4oc(-c5ccccc5)nc4c(C(=O)NC4C(=O)NC(C(C)C)C(=O)N5CCCC5C(=O)N(C)CC(=O)N(C)C(C(C)C)C(=O)OC4C)c3nc-2c(C(=O)NC2C(=O)NC(C(C)C)C(=O)N3CCCC3C(=O)N(C)CC(=O)N(C)C(C(C)C)C(=O)OC2C)c(N)c1=O (stereo not shown)
## Output 59 (53-59) days

## Input Query MST (range) on B16 melanoma for Cc1c2oc3c(C)c(O)cc(C(=O)N[C@@H]4C(=O)N[C@H](C(C)C)C(=O)N5CCC[C@H]5C(=O)N(C)CC(=O)N(C)[C@@H](C(C)C)C(=O)O[C@@H]4C)c3nc-2c(C(=O)N[C@@H]2C(=O)N[C@H](C(C)C)C(=O)N3CCC[C@H]3C(=O)N(C)CC(=O)N(C)[C@@H](C(C)C)C(=O)O[C@@H]2C)c(N)c1=O [2a, 7-hydroxyactinomycin D, reference compound]
## Output 44 (39-53) days

## Input Notebook: pull reported MST (range) for B16 melanoma, entry Cc1nc2c(C(=O)NC3C(=O)NC(C(C)C)C(=O)N4CCCC4C(=O)N(C)CC(=O)N(C)C(C(C)C)C(=O)OC3C)c3nc4c(C(=O)NC5C(=O)NC(C(C)C)C(=O)N6CCCC6C(=O)N(C)CC(=O)N(C)C(C(C)C)C(=O)OC5C)c(N)c(=O)c(C)c-4oc3c(C)c2o1 (stereo not shown)
## Output 55 (33-57) days

## Input Look up MST (range) with B16 melanoma for this compound: Cc1c2oc3c(C)ccc(C(=O)N[C@@H]4C(=O)N[C@H](C(C)C)C(=O)N5CCC[C@H]5C(=O)N(C)CC(=O)N(C)[C@@H](C(C)C)C(=O)O[C@@H]4C)c3nc-2c(C(=O)N[C@@H]2C(=O)N[C@H](C(C)C)C(=O)N3CCC[C@H]3C(=O)N(C)CC(=O)N(C)[C@@H](C(C)C)C(=O)O[C@@H]2C)c(N)c1=O [AMD, Actinomycin D] (I: T[dV]P[Sar][NMeV] / II: T[dV]P[Sar][NMeV]; ester I:1-I:C, II:1-II:C; linker I:N-II:N via Actinocin(9to1))
## Output 43 (36-54) days

## Input Observed MST (range) on B16 melanoma for Cc1nc2c(C(=O)NC3C(=O)NC(C(C)C)C(=O)N4CCCC4C(=O)N(C)CC(=O)N(C)C(C(C)C)C(=O)OC3C)c3nc4c(C(=O)NC5C(=O)NC(C(C)C)C(=O)N6CCCC6C(=O)N(C)CC(=O)N(C)C(C(C)C)C(=O)OC5C)cc(=O)c(C)c-4oc3c(C)c2o1 (stereo not shown) , please.
## Output 45 (32-55) days
